testDescription: recombinant UMI read abundance after kanamycin selection (control-corrected) (log10(CPM+1)); higher = more efficient recombination; extreme values may be limits of the assay; sequences stand for … in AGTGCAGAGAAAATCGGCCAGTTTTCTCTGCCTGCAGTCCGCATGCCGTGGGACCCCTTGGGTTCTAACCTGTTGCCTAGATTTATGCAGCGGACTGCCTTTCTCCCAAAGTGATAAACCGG…AGGTTGGTTTCACT; site = the 11-nt donor;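 note: IS621 bridge recombinase in Escherichia coli cells against a fixed T5 target plasmid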
The reader will find reported recombinant UMI read abundance (log10) values listed item by item below.
Number only, no unit.

Prompt line: Return recombinant UMI read abundance (log10) for the following sequence: GCGAAAACATGGACCGGTTTTCCCGGTAATCCGTATTTGAT (site GCGAAAACTAC)
Response line: 0.0215

Prompt line: Identify the reported recombinant UMI read abundance (log10) for the following entry. TATCCTTCATGGACCGGTTTTCCCGGTAATCCGTATTTGGT (site TAACCTTCTAC)
Response line: 0.00593

Prompt line: Please report the measured recombinant UMI read abundance (log10) for GTTACTGCATGGACCGGTTTTCCCGGTAATCCGTATTTGCC (site GATACTGCTGG)
Response line: 0

Prompt line: Return recombinant UMI read abundance (log10) for the following sequence: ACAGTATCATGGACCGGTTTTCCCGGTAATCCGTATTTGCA (site ACAGGGTCTTG)
Response line: 1.17

Prompt line: Provide recombinant UMI read abundance (log10) value for the following sequence: CTCGTAACATGGACCGGTTTTCCCGGTAATCCGTATTTGAT (site CTCGTAACTAT)
Response line: 2.31

Prompt line: Identify measured recombinant UMI read abundance (log10) corresponding to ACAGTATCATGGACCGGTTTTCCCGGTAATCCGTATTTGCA (site CCAGTATCTTT)
Response line: 0.00394

Prompt line: Quickly give me recorded recombinant UMI read abundance (log10) for CTACCTACATGGACCGGTTTTCCCGGTAATCCGTATTTGAG (site CTGCCTACTCT)
Response line: 0.00249

Prompt line: Give reported recombinant UMI read abundance (log10) value for CACAGCCCATGGACCGGTTTTCCCGGTAATCCGTATTTGTT (site CACGGCCCTAA)
Response line: 0.0224

Prompt line: Assign recombinant UMI read abundance (log10) to the following record: TACTTGACATGGACCGGTTTTCCCGGTAATCCGTATTTGCG (site TACTTGACTAG)
Response line: 0.00183
